# System Name: Estrogen receptor (Homo sapiens) (UniProt P03372)
# Sequence (P03372 whole entry, looked up): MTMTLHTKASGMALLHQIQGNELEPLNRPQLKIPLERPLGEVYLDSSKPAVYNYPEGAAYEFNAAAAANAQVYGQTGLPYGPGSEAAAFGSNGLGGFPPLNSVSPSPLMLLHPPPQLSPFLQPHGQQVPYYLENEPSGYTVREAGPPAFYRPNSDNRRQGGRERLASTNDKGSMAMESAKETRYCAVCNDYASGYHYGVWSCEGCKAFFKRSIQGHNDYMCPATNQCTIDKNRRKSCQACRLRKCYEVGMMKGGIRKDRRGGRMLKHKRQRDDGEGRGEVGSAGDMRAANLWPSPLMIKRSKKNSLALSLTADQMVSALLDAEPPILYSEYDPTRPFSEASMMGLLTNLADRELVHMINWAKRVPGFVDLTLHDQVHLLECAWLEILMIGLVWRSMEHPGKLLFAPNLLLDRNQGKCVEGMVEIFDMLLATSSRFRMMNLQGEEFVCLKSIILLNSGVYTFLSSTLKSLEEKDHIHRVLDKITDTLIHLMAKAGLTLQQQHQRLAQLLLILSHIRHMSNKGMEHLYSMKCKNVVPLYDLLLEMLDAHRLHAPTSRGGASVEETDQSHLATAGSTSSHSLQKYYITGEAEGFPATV
# Experimental Details: qHTS assay to identify small molecule agonists of the estrogen receptor alpha (ER-alpha) signaling pathway (AID 743075);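 further: HEK293 GripTite cells with ER-alpha and UAS-driven beta-lactamase reporter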
# Test Settings: HEK293 ER-alpha-UAS-bla, beta-lactamase FRET ratio, 18 h; series mostly up to 70.1 µM
Activity calls are given as the source filed them. The call rests on the fitted dose curve.
Tick one outcome: yes (1) for active, no (0) for inactive

stdin: Kindly provide the recorded test outcome for the following compound: OC1CCC(C2CCCCC2)CC1 (configuration not stated)
stdout: no (0)

stdin: Kindly provide the recorded test outcome for the following compound: CCOc1ccc2ccccc2c1C(=O)N[C@@H]1C(=O)N2[C@@H]1SC(C)(C)[C@@H]2C(=O)O
stdout: no (0)

stdin: Kindly provide the recorded test outcome for the following compound: CCCCCCCC/C=C\CCCCCCCCN
stdout: no (0)

stdin: Kindly provide the recorded test outcome for the following compound: CC(C)(C)C1CCC(=O)CC1
stdout: no (0)

stdin: Kindly provide the recorded test outcome for the following compound: CC(C)OC(=O)C(O)(CC(=O)O)CC(=O)O
stdout: no (0)

stdin: Kindly provide the recorded test outcome for the following compound: CCCC1CCC(=O)CC1
stdout: no (0)

stdin: Kindly provide the recorded test outcome for the following compound: Cc1cc(C(C#N)c2ccc(Cl)cc2)c(Cl)cc1NC(=O)c1cc(I)cc(I)c1O (configuration not stated)
stdout: no (0)

stdin: Kindly provide the recorded test outcome for the following compound: O=c1[nH]c(=O)n([C@H]2C[C@H](O)[C@@H](CO)O2)cc1F
stdout: no (0)

stdin: Kindly provide the recorded test outcome for the following compound: C#C[C@]1(OC(C)=O)CC[C@H]2[C@@H]3CCC4=C[C@@H](OC(C)=O)CC[C@@H]4[C@H]3CC[C@@]21C
stdout: yes (1)

stdin: Kindly provide the recorded test outcome for the following compound: [Cu+]
stdout: no (0)

stdin: Kindly provide the recorded test outcome for the following compound: COC(=O)c1ccccc1OC
stdout: no (0)

stdin: Kindly provide the recorded test outcome for the following compound: Clc1ccnc(Cl)n1
stdout: no (0)

stdin: Kindly provide the recorded test outcome for the following compound: CC(C)(c1cc(Br)c(OCC(Br)CBr)c(Br)c1)c1cc(Br)c(OCC(Br)CBr)c(Br)c1 (configuration not stated)
stdout: no (0)

stdin: Kindly provide the recorded test outcome for the following compound: C=C(C)C(=O)OCCCCCCCCCC
stdout: no (0)

stdin: Kindly provide the recorded test outcome for the following compound: CCc1oc2ccccc2c1C(=O)c1cc(I)c(O)c(I)c1
stdout: no (0)

stdin: Kindly provide the recorded test outcome for the following compound: OC12N=C(c3ccccc3)SC1Cc1cc(Cl)ccc12 (configuration not stated)
stdout: no (0)

stdin: Kindly provide the recorded test outcome for the following compound: C#C[C@]1(OC(C)=O)CC[C@H]2[C@@H]3CCC4=C/C(=N/O)CC[C@@H]4[C@H]3CC[C@@]21CC
stdout: yes (1)

stdin: Kindly provide the recorded test outcome for the following compound: CC1(C)CC(O)CC(C)(C)N1
stdout: no (0)

stdin: Kindly provide the recorded test outcome for the following compound: Cc1cc(C(C)(C)C)cc(C)c1CC1=NCCN1
stdout: no (0)

stdin: Kindly provide the recorded test outcome for the following compound: O=c1c(O)c(-c2ccc(O)cc2O)oc2cc(O)cc(O)c12
stdout: no (0)

stdin: Kindly provide the recorded test outcome for the following compound: Cc1ccc(C)cc1
stdout: no (0)

stdin: Kindly provide the recorded test outcome for the following compound: c1ccc(SSc2ccccc2)cc1
stdout: no (0)

stdin: Kindly provide the recorded test outcome for the following compound: NC(=O)c1cccc([N+](=O)[O-])c1
stdout: no (0)

stdin: Kindly provide the recorded test outcome for the following compound: CN1CCN2c3ccccc3Cc3ccccc3C2C1 (configuration not stated)
stdout: no (0)

stdin: Kindly provide the recorded test outcome for the following compound: Cc1cc(=O)oc2cc(O)cc(O)c12
stdout: no (0)

stdin: Kindly provide the recorded test outcome for the following compound: OC1CCCc2ccccc21 (configuration not stated)
stdout: no (0)

stdin: Kindly provide the recorded test outcome for the following compound: CCOC(=O)NNc1ccc(N(CC)CC(C)O)nn1 (configuration not stated)
stdout: no (0)
